- protocol: Inhibition of Trichomonas vaginalis uridine nucleoside ribohydrolase using 5-fluorouridine as substrate after 40 mins by NMR spectrometric analysis
measurement name: IC50 (nM)

* COCCCOc1ccnc(C[S+]([O-])c2nc3ccccc3[nH]2)c1C (stereo not drawn) [RABEPRAZOLE] | 300
* COc1ccnc(C[S+]([O-])c2nc3cc(OC(F)F)ccc3[nH]2)c1OC (stereo not drawn) [PANTOPRAZOLE SODIUM] | 14500
* COc1ccc2[nH]c([S+]([O-])Cc3ncc(C)c(OC)c3C)nc2c1 (stereo not drawn) [OMEPRAZOLE] | 2300
